- tgt: T1, human isoleucine zipper-CD40L (IZ-hCD40L) (human, UniProt P29965 113-261)
- T1 sequence: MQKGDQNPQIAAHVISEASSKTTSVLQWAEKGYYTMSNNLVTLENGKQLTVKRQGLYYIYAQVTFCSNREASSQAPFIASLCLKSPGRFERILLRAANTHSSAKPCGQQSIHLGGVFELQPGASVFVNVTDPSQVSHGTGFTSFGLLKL
- measurementDescription: cell-based or functional assay
measuredProperty: hIZCD40L-driven Human B Cell Proliferation EC50

Prompt: Give recorded hIZCD40L-driven Human B Cell Proliferation EC50. BMS2h-745-13 (other) VH: EVQLLESGGGLVQPGGSLRLSCAASGFTFDNTEMAWIRQAPGKGLEWVSGIIEDGNRTYYADSVKGRFTISRDNSKNTLYLQMNSLRAEDTAVYYCAKIRNLHWDVGRQFDYWGQGTLVTVSS
Response: > 7 µM

Next:
Prompt: Give recorded hIZCD40L-driven Human B Cell Proliferation EC50. BMS2h-494-3 (other) VL: DIQMTQSPSSLSASVGDRVTITCRASQSIDEDLEWYQQKPGKAPRLLIYSSSWLQSGVPSRFSGSGSGTDFTLTISSLQPEDFATYFCQQYFQYPPTFGQGTKVEIKR
Response: > 7 µM
